protocol_text: soluble on expression in E. coli; label from the status in PepcDB or PDB records
reported_property: soluble on expression in E. coli

[[record]]
sequence = "MSKIRVLSVDDSALMRQIMTEIINSHSDMEMVATAPDPLVARDLIKKFNPDVLTLDVEMPRMDGLDFLEKLMRLRPMPVVMVSSLTGKGSEVTLRALELGAIDFVTKPQLGIREGMLAYSEMIAEKVRTAARARIAAHKPMAAPTTLKAGPLLSSEKLIAIGASTGGTEAIRHVLQPLPLSSPAVIITQHMPPGFTRSFAERLNKLCQISVKEAEDGERVLPGHAYIAPGDKHMELARSGANYQIKIHDGPPVNRHRPSVDVLFHSVAKHAGRNAVGVILTGMGNDGAAGMLAMYQAGAWTIAQNEASCVVFGMPREAINMGGVSEVVDLSQVSQQMLAKISAGQAIRI"
result_value = "soluble"

[[record]]
sequence = "AHHHHHHASAKWVCKICGYIYDEDAGDPDNGISPGTKFEELPDDWVCPICGAPKSEFEKLEDGSACYSSSPEVIVLREYLLIKIHEDGVIKIPQELAYEVGLVKGAYFLVEIDTDIKELHVERVALPGKKLVEIELVVEDKPGVLAKIAGILGKNGINILFNEAEELESLGLSAIVAVVDVSGAKISLKDLESTLKEINEVKEVKIVEIE"
result_value = "soluble"

